procedure text: CHI Log D procedure
Assay type: physicochemical
measurement parameters: pH 7.4, CHI Log D
# chromatographic logD per entry
result type: chromatographic logD

compound	result type	reported result
CC(=O)N1CCC[C@]12CC=CCCCC1(CCCC=CCCCOC(=O)N3CC[C@@](C(=O)N[C@@H](Cc4ccsc4)C(=O)N[C@@H](Cc4csc5ccccc45)C(=O)N[C@@H](C(N)=O)[C@H](C)O)(C3)NC(=O)[C@H](CC(N)=O)NC(=O)[C@H](Cc3ccccc3)NC(=O)[C@H](C)NC(=O)[C@H](C)NC(=O)[C@H](CC(=O)O)NC(=O)[C@H](CC(=O)O)NC1=O)NC(=O)[C@H](CC(C)(C)C)NC(=O)[C@H](CC(=O)O)NC2=O (stereo partly drawn) [I-817]	chromatographic logD	2.23
CC(=O)N1CCC[C@]12CC=CCCCC1(CCCC=CCCCCCC[C@@](C)(C(=O)N[C@@H](CCc3ccccc3)C(=O)N[C@@H](Cc3c[nH]c4ccccc34)C(=O)N[C@@H](CCC(N)=O)C(N)=O)NC(=O)[C@H](C(C)C)NC(=O)[C@H](Cc3ccccc3)NC(=O)[C@H](C)NC(=O)[C@H](C)NC(=O)[C@H](CC(=O)O)NC(=O)[C@H](CC(=O)O)NC1=O)NC(=O)[C@H](C)NC(=O)[C@H](CC(=O)O)NC2=O (stereo partly drawn) [I-268]	chromatographic logD	2.08
CCNC(=O)C[C@@H]1NC(=O)C2(CCCC=CCCCCCC[C@@](C)(C(=O)N[C@@H](Cc3ccccc3)C(=O)N[C@@H](Cc3csc4ccccc34)C(=O)N[C@@H](CCC(N)=O)C(N)=O)NC(=O)[C@H](C(C)C)NC(=O)[C@H](Cc3ccccc3)NC(=O)[C@H](C)NC(=O)[C@H](C)NC(=O)[C@H](CC(=O)O)NC1=O)CCCC=CC[C@]1(CCCN1C(C)=O)C(=O)N[C@@H](CC(=O)O)C(=O)N[C@@H](C)C(=O)N2 (stereo partly drawn) [I-536]	chromatographic logD	2.75

* * *

test system: beta-catenin/TCF4 engagement (Homo sapiens)
Construct: expressed in transfected cells; host or cells: HEK293
Sequence (P35222 whole entry): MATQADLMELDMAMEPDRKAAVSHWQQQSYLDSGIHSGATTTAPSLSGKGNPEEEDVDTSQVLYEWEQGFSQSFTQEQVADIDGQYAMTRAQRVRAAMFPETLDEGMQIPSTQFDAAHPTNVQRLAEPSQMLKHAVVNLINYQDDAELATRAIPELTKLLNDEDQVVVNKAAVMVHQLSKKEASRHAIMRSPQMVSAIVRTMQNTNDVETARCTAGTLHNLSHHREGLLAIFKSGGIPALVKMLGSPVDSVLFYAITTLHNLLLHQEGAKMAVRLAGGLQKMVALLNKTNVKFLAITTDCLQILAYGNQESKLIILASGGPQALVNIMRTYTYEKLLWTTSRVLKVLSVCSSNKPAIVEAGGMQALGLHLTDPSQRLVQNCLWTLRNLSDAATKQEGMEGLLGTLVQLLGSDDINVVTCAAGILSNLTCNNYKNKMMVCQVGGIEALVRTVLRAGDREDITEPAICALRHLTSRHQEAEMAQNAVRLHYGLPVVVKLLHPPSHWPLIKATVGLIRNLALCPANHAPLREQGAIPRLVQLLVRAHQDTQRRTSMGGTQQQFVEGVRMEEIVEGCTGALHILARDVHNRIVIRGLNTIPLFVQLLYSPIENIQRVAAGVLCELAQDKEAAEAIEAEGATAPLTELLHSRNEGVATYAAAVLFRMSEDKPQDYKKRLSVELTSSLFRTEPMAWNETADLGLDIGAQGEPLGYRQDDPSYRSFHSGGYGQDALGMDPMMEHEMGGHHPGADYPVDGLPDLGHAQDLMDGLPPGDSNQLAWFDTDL
procedure text: Nano-BRET target engagement assay (B-cat-Halo & TCF4-Luc in HEK293 cells)
Assay type: cell-based
measurement parameters: absolute IC50; read-out: NanoBRET Abs IC50
pIC50: −log10 of the molar value.

compound	pIC50
CC(=O)N1CC2CC1C(=O)N[C@@H](CC(=O)O)C(=O)N[C@@H](CC(C)(C)C)C(=O)NC1(CCCCCCCCOC(=O)N3CC[C@@](C(=O)N[C@@H](Cc4ccsc4)C(=O)N[C@@H](Cc4csc5ccccc45)C(=O)N[C@@H](CCC(N)=O)C(N)=O)(C3)NC(=O)[C@H](CC(C)C)NC(=O)[C@H](Cc3ccccc3)NC(=O)[C@H](C)NC(=O)[C@H](C)NC(=O)[C@H](CN(CC(=O)O)CC(F)(F)F)NC(=O)[C@H](CC(=O)O)NC1=O)CCCCCCOc1cccc(c1)C(=O)O2 (stereo partly shown)	< 4.70
CC(=O)N1CCC[C@]12CC=CCCCC1(CCCC=CCCCOC(=O)N3CC[C@@](C(=O)N[C@@H](Cc4ccsc4)C(=O)N[C@@H](Cc4csc5ccccc45)C(=O)N[C@@H](CCC(N)=O)C(N)=O)(C3)NC(=O)[C@H](CCO)NC(=O)[C@H](Cc3ccccc3)NC(=O)[C@H](C)NC(=O)[C@H](C)NC(=O)[C@H](Cc3c[nH]cn3)NC(=O)[C@H](CC(=O)O)NC1=O)NC(=O)[C@H](CC(C)(C)C)NC(=O)[C@H](CC(=O)O)NC2=O (stereo partly shown) [I-1793]	< 4.70
CC(=O)N1CCC[C@]12CCCCCCC1(CCCCCCCCOC(=O)N3CC[C@@](C(=O)N[C@@H](CC4CCCC4)C(=O)N[C@@H](Cc4csc5ccccc45)C(=O)N[C@@H](CCC(N)=O)C(N)=O)(C3)NC(=O)[C@H](CC(C)C)NC(=O)[C@H](Cc3ccccc3)NC(=O)[C@H](C)NC(=O)[C@H](C)NC(=O)[C@H](CN(CC(=O)O)CC(F)(F)F)NC(=O)[C@H](CC(=O)O)NC1=O)NC(=O)[C@H](CC(C)(C)C)NC(=O)[C@H](CC(=O)O)NC2=O (stereo partly shown)	< 4.70
CC(=O)N1CCC[C@]12CC=CCCCC1(CCCC=CCCCOC(=O)N3CC[C@@](C(=O)N[C@@H](Cc4ccccc4)C(=O)N[C@@H](Cc4csc5ccccc45)C(=O)N[C@@H](CCC(N)=O)C(N)=O)(C3)NC(=O)[C@H](CO)NC(=O)[C@H](Cc3cccc(C(F)(F)F)c3)NC(=O)[C@H](C)NC(=O)[C@H](C)NC(=O)[C@H](CC(=O)O)NC(=O)[C@H](CC(=O)O)NC1=O)NC(=O)[C@H](CC1CCCCC1)NC(=O)[C@H](CC(=O)O)NC2=O (stereo partly shown)	< 4.70
